test: Stability in rat plasma assessed as parent compound remaining at 10 uM measured after 60 mins by UPLC-MS/MS analysis; assay type: ADME, cell-free; settings: read-out: Stabilty
MEASUREMENT_KIND: remaining at 1 h, 10 µM (%)

| MOLECULE | MEASUREMENT_KIND | REPORTED_VALUE |
| --- | --- | --- |
| COc1cc2c(cc1O)CCC(C)(CC(=O)NCCCCCCCCNc1c3c(nc4cc(Cl)ccc14)CCCC3)O2 (stereo unspecified) | remaining at 1 h, 10 µM | 100 |

* * *

experiment: in vitro; settings: PAMPA
Description: Permeability of compound in PBS/EtOH buffer (7:3) PAMPA-BBB assay
The class of a record is decided solely by its measured Papp; consult low class: < 8 ×10⁻⁶ cm/s; middle class: ≥ 8 ×10⁻⁶ cm/s and < 10 ×10⁻⁶ cm/s; high class: ≥ 10 ×10⁻⁶ cm/s

| COMPOUND | ASSIGNED_LABEL |
| --- | --- |
| COc1cc2c(cc1O)CCC(C)(CC(=O)NCCCCCCCNc1c3c(nc4ccccc14)CCCC3)O2 (configuration not stated) | low class |
| COc1cc2c(cc1O)CCC(C)(CC(=O)NCCCCCCNc1c3c(nc4ccccc14)CCCC3)O2 (configuration not stated) | low class |
| COc1cc2c(cc1O)CCC(C)(CCC(=O)NCCCCCCCCNc1c3c(nc4cc(Cl)ccc14)CCCC3)O2 (configuration not stated) | middle class |
| COc1cc2c(cc1O)CCC(C)(CC(=O)NCCCCCCCCCNc1c3c(nc4ccccc14)CCCC3)O2 (configuration not stated) | middle class |
| COc1cc2c(cc1O)CCC(C)(CC(=O)NCCOCCOCCNc1c3c(nc4cc(Cl)ccc14)CCCC3)O2 (configuration not stated) | low class |
| COc1cc2c(cc1OCc1ccccc1)CCC(C)(CC(=O)NCCCCCCNc1c3c(nc4cc(Cl)ccc14)CCCC3)O2 (configuration not stated) | high class |
| COc1cc2c(cc1O)CCC(C)(CCNCCCCCCCCNc1c3c(nc4cc(Cl)ccc14)CCCC3)O2 (configuration not stated) | high class |
| COc1cc2c(cc1OCc1ccccc1)CCC(C)(CC(=O)NCCCCCCCNc1c3c(nc4cc(Cl)ccc14)CCCC3)O2 (configuration not stated) | high class |
| COc1cc2c(cc1O)CCC(C)(CC(=O)NCCCCCCCNc1c3c(nc4cc(Cl)ccc14)CCCC3)O2 (configuration not stated) | middle class |
| COc1cc2c(cc1O)CCC(C)(CCC(=O)NCCCCCCCNc1c3c(nc4cc(Cl)ccc14)CCCC3)O2 (configuration not stated) | middle class |
| COc1cc2c(cc1O)CCC(C)(CC(=O)O)O2 (configuration not stated) | low class |
| COc1cc2c(cc1O)CCC(C)(CC(=O)NCCCCCCCCNc1c3c(nc4ccccc14)CCCC3)O2 (configuration not stated) | low class |
| COc1cc2c(cc1O)CCC(C)(CC(=O)NCCCCCCCCNc1c3c(nc4cc(Cl)ccc14)CCCC3)O2 (configuration not stated) | middle class |
| Nc1c2c(nc3cc(Cl)ccc13)CCCC2 | high class |
